# Tested on: MAO P3
# procedure.text: Substrate specificity (Vmax, Km) of purified MAO P3, GC-MS
# Type: biochemical, Pseudogymnoascus sp. P3
# applied.conditions: purified MAO P3 1 U/mL, 0.1 M potassium phosphate buffer pH 7.2, 30 °C
# Method: Substrate specificity of MAO P3 was examined towards sixteen amine substrates (listed in Table 3) that differed in the number of carbons and various substitutions. […] The substrate specificity was measured at 30 °C; reactions were carried out for 5 h, 810 rpm. […] The Km values were calculated based on […] curves (see the Supplementary Materials). […]

# compound, Km [mM]
rows = [
    ("C1CC2CNCC2C1 (centres unmarked) [Substrate 10, 3-azabicyclo[3.3.0]octane]", 10.4),
    ("CCC(C)N (centres unmarked) [Substrate 1, sec-butylamine]", 18),
    ("CC1(C)C2CNCC21 (centres unmarked) [Substrate 9, 6,6-dimethyl-3-azabicyclo[3.1.0]hexane]", 2.4),
    ("C1CCNC1 [Substrate 3, pyrrolidine]", 14.3),
    ("NC1CCCC1 [Substrate 2, cyclopentylamine]", 8.22),
]
